These entries and their values trace back to patent US12054475B2.

IC50 values for the compounds below.
biological target: hALDH1a3 (Homo sapiens (Human), UniProt P47895); experiment: Aldh1a3 enzyme inhibition assay (recombinant enzyme, resorufin fluorescence); type: biochemical; details: read-out: hAldh1a3 IC50
Sequence (P47895 whole entry): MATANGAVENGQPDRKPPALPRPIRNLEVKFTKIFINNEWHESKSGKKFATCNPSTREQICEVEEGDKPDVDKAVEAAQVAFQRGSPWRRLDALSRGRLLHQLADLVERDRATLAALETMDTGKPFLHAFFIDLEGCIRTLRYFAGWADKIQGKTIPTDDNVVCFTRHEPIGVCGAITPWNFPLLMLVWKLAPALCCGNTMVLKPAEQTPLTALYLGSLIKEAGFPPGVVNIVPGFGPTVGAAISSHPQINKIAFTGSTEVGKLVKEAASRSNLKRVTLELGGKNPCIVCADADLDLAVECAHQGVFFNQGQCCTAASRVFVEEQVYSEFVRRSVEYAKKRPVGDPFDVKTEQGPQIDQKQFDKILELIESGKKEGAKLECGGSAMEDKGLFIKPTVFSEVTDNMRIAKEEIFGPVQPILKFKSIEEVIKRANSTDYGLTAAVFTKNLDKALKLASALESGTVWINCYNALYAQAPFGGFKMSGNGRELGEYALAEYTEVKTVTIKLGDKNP

CHEMICAL_STRUCTURE	IC50
Cc1cc(Nc2cnc3ccccc3n2)cc2c1NC(=O)C(C)(C)C2	> 5000 nM
CCc1cnc(Cl)cc1C(=O)Nc1cc(C)c2c(c1)CCC(=O)N2	< 100 nM
CCc1cnccc1C(=O)Nc1cc(C#N)c2c(c1)CCC(=O)N2	100 to 250 nM

Record summary for Cc1cc(NC(=O)c2ccnc3c2CCO3)cc2c1NC(=O)CC2 : reported IC50 = 1000 to 5000 nM

Record summary for O=C1CCc2cc(NC(=O)c3ccncc3CC(F)(F)F)c(F)c(F)c2N1 : reported IC50 = < 100 nM
